test: amyloid nucleation score (Sup35N fusion, yeast selection) (log enrichment); library NNK1; higher = more nucleation; inactive = no reads after selection;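 note: zero at mode of non-aggregating sequences after 7 days selection at 30°C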
Entries and their amyloid nucleation score
// return a plain number; no unit text

Example entries and their recorded answers appear below.
Substance	Value Measured
KSWWNDVFVYVYQILEFHCR	0.032
SIGNKYKSIVWYFKCCLANL	5.97
SNTRFSCRSPWVCTFFVREV	0.085
SGRPLNNVWGVTWEIMRLSL	-0.839

# substance "GFSEKQNY" ; its amyloid nucleation score = 0.383

# substance "NLMFSNGSNRSGF" ; its amyloid nucleation score = 0.142

// sample "TNDTAPVWHTDLMTDWR" , its amyloid nucleation score was -0.079

Measured amyloid nucleation score, "GRFRSTTVWFWVLDVLYGCS" : 0.547

So, "GFDKLVGPCGYGLRRGSLWR" ? Its amyloid nucleation score was 0.781

// amyloid nucleation score lookup, substance = "RGELVPHVVMYNLWKL" , result: 4.21

Per the records, this substance ( "ILLICYGSCAPNNMVSASTD" ) has amyloid nucleation score equal to -0.959

Briefly, amyloid nucleation score measured for "AFLQLDS" : 0.665

Record summary for "YFAYQDILVNDTIRIL" : reported amyloid nucleation score = 0.063

Measured amyloid nucleation score, "RRTLEAFICL" : -0.312
